Source listed as paper PMC10397247.

# test_system: T1, 4H968-bA
# T1 chain: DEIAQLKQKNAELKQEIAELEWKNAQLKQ
# experiment_description: two-hybrid library CCNG1;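 also: natural log of median RNA to DNA barcode read ratio; higher means stronger binding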
# note: exactly -0.7 is not below, so it is not met; use met for interaction score strictly under it

Answered cases to consult:
binder: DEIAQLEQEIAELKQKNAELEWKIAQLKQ [4H118-bA]
qualitative_label: not met
--
binder: DEIAQLEQKNAELKQEIAELKWEIAQLEQ [4H457-bA]
qualitative_label: not met
--
binder: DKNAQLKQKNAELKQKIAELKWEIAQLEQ [4H4073-bA]
qualitative_label: met

# input interaction score strictly < -0.7 for this binder? DEIAQLKQENAELKQKNAELEWEIAQLKQ [4H754-bA]
# output not met

# input I'd appreciate it if you could check whether DEIAQLKQKIAELEQENAELKWKIAQLEQ [4H797-bA] has interaction score smaller than -0.7.
# output met

# input Report whether reported interaction score is lower than -0.7 (strictly) for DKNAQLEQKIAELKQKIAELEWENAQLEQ [4H3427-bA]
# output met
